Tested on: MKNK2
experimentalSetup: concentration: 1 μM, replicates: in singlicate; n = 1;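 further: KINOMEscan kinase panel screen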
propertyLabel: %Inh (%)
Use % as the unit, but write only the number.

query: Name the recorded %Inh for Cc1cccc(Nc2nc(N[C@H]3CCCC[C@H]3N)ncc2C(N)=O)c1.Cl [GSK986310] .
result: 17

query: Name the recorded %Inh for O=C(Nc1n[nH]c2cc(-c3cccs3)ccc12)C1CC1 [SB-731284] .
result: 28

query: Name the recorded %Inh for COc1cccc2c(-c3ccncc3)c(-c3ccc(F)cc3)nn12 [GW468513] .
result: 0

====

Test system: MARK4
experimentalSetup: concentration: 1 μM, replicates: in singlicate; n = 1
propertyLabel: %Inh (%)
Use % as the unit, but write only the number.

query: Name the recorded %Inh for COC(=O)Nc1nc2ccc(Oc3ccc(CC(=O)Nc4cc(C(F)(F)F)ccc4F)cc3)cc2[nH]1 .
result: 0

query: Name the recorded %Inh for O=C(Nc1c(F)cccc1F)c1cc(C(=O)c2ccccc2F)c[nH]1 .
result: 9

query: Name the recorded %Inh for COc1cccc2c(-c3ccncc3)c(-c3ccc(F)cc3)nn12 .
result: 3

query: Name the recorded %Inh for Cn1cc(-c2ccc3c(c2)CCN3C(=O)Cc2cc(F)cc(C(F)(F)F)c2)c2c(N)ncnc21 .
result: 2

query: Name the recorded %Inh for CN(c1ccc2c(c1)nc(NCc1ccccc1)n2C)c1ccnc(Nc2ccc(CS(C)(=O)=O)cc2)n1.Cl .
result: 5

query: Name the recorded %Inh for CC(C)(C)c1ccc(C(=O)Nc2cn3cc(-n4ccnc4)ccc3n2)cc1 .
result: 0

query: Name the recorded %Inh for Cn1cc(-c2cnc(N)c3c(-c4ccc5c(c4)CCN5C(=O)Cc4ccccc4)csc23)cn1 .
result: 9

====

Tested on: GCN2(Kin.Dom.2,S808G)
Construct: gene EIF2AK4
experimentalSetup: concentration: 1 μM, replicates: in singlicate; n = 1
propertyLabel: %Inh
# number then unit; no other words

query: Name the recorded %Inh for Nc1ncc(-c2cn[nH]c2)c2scc(-c3ccc4c(c3)CCN4C(=O)Cc3ccccc3)c12 .
result: 97.8%

query: Name the recorded %Inh for O=C(O)C(F)(F)F.O=c1[nH]ccc2nc(N[C@@H]3CCNC3)nc(Nc3ccc4c(c3)S(=O)(=O)CC4)c12 .
result: 97.3%

query: Name the recorded %Inh for CC(=O)Nc1cn2nc(Oc3cccc(NC(=O)c4cccc(C(F)(F)F)c4)c3)ccc2n1 .
result: 37%

query: Name the recorded %Inh for Cc1cc(-c2c(-c3ccc(F)cc3)ncn2CCCN2CCOCC2)nc(N)n1 .
result: 0%

query: Name the recorded %Inh for Cc1nn2c(=O)cc(N3CCO[C@H](C)C3)nc2n1Cc1cccc(Cl)c1Cl .
result: 0%

query: Name the recorded %Inh for CC(C)NCC(Cc1ccccc1)NC(=O)c1cc(Br)c(-c2ccnc3[nH]ccc23)s1.Cl.Cl (stereo not drawn) .
result: 33%

====

Tested on: YANK3
Construct: gene STK32C
experimentalSetup: concentration: 1 μM, replicates: in singlicate; n = 1
So I've got a bunch of molecules here, and I need their %Inh values.
Use % as the unit, but write only the number.

query: Name the recorded %Inh for COc1cccc(CC(=O)N2CCc3cc(-c4cn(C)c5ncnc(N)c45)ccc32)c1 .
result: 8

query: Name the recorded %Inh for Cc1cccc(Nc2nc(NCCN)ncc2C(N)=O)c1 .
result: 0

query: Name the recorded %Inh for CCn1c(-c2nonc2N)nc2c(-c3ccccc3)ncc(OCCCN)c21.O=C(O)C(F)(F)F.O=C(O)C(F)(F)F .
result: 50

query: Name the recorded %Inh for CC(C)c1nc(-c2ccc(F)c(NS(=O)(=O)c3c(F)cccc3F)c2)c(-c2ccnc(Nc3ccc(N4CCOCC4)nc3)n2)s1 .
result: 15

query: Name the recorded %Inh for COC(=O)Nc1nc2ccc(Oc3ccc(NC(=O)Nc4cc(C(F)(F)F)ccc4F)cc3)cc2[nH]1.Cl .
result: 100

query: Name the recorded %Inh for CCn1cnc2c(NCc3ccccc3)ncnc21 .
result: 0

query: Name the recorded %Inh for COc1ccc(C2=C(Nc3cccc(O)c3)C(=O)NC2=O)cc1 .
result: 17

query: Name the recorded %Inh for O=C(Nc1c(F)cccc1F)c1cc(C(=O)c2ccccc2F)c[nH]1 .
result: 0

query: Name the recorded %Inh for COc1cc(Nc2nccc(N3CCC(NS(=O)(=O)c4ccc(NC(C)=O)cc4)CC3)n2)cc(OC)c1OC .
result: 0

query: Name the recorded %Inh for CC(C)c1nc(-c2cccc(NS(=O)(=O)c3c(F)cccc3F)c2)c(-c2ccnc(Nc3ccc(N4CCOCC4)nc3)n2)s1.Cl .
result: 19

====

System: FES
experimentalSetup: concentration: 1 μM, replicates: in singlicate; n = 1
propertyLabel: %Inh (%)
Use % as the unit, but write only the number.

query: Name the recorded %Inh for COc1cc(Nc2nccc(N3CCC(NS(=O)(=O)c4ccc(NC(C)=O)cc4)CC3)n2)cc(OC)c1OC .
result: 48

query: Name the recorded %Inh for COc1cc(Nc2nccc(N3CCC(NC(=O)Nc4ccc5c(c4)OCO5)C3)n2)cc(OC)c1OC (stereo not shown) .
result: 0

query: Name the recorded %Inh for O=C(Nc1c(F)cccc1F)c1cc(C(=O)c2ccccc2F)c[nH]1 .
result: 0

query: Name the recorded %Inh for Nc1cccc(-c2ccc3c(N)n[nH]c3c2)c1 .
result: 16

query: Name the recorded %Inh for CCOc1nccc(-c2c(-c3ccc(F)cc3)ncn2C2CCNCC2)n1 .
result: 0

query: Name the recorded %Inh for Nc1ncnc2scc(-c3ccc(NC(=O)Cc4cc(F)ccc4F)cc3)c12.O=C(O)C(F)(F)F .
result: 0

query: Name the recorded %Inh for CC(C)c1nc(-c2cccc(NS(=O)(=O)c3c(F)cccc3F)c2)c(-c2ccnc(Nc3ccc(N4CCOCC4)nc3)n2)s1.Cl .
result: 18

query: Name the recorded %Inh for Cc1ccc(O)cc1Nc1ccnc2ccc(C(C)(C)C)cc12 .
result: 12

query: Name the recorded %Inh for c1ccc(Oc2ccc(Nc3ccnc4cc(-c5ccc(CN6CCCCC6)o5)ccc34)cc2)nc1 .
result: 0

query: Name the recorded %Inh for Cl.Cl.NC(CNC(=O)c1cc(Br)c(-c2ccnc3[nH]ccc23)s1)c1ccccc1 (stereo not shown) .
result: 0

query: Name the recorded %Inh for O=C(Nc1n[nH]c2nc(-c3ccccc3O)ccc12)C1CC1 .
result: 0

query: Name the recorded %Inh for COC(=O)Nc1nc2ccc(Oc3ccc(CC(=O)Nc4cc(C(F)(F)F)ccc4F)cc3)cc2[nH]1 .
result: 0

query: Name the recorded %Inh for COC(=O)Nc1nc2cc(Oc3ccc(NC(=O)Nc4cccc(SC)c4)cc3)ccc2[nH]1.Cl .
result: 0

query: Name the recorded %Inh for CC(C)NCC(Cc1ccccc1)NC(=O)c1cc(Br)c(-c2ccnc3[nH]ccc23)s1.Cl.Cl (stereo not shown) .
result: 0

query: Name the recorded %Inh for COc1ccc(NC(=O)c2ccoc2)cc1-c1ccc(C(=O)NCC2CC2)cc1 .
result: 7

query: Name the recorded %Inh for CN(c1ccc(NC(=O)N2CCN(CCCN3CCOCC3)CC2)cc1)c1ccnc(Nc2ccc(CS(C)(=O)=O)cc2)n1.Cl .
result: 0

query: Name the recorded %Inh for CCNc1nccc(-c2c(-c3ccc(F)cc3)ncn2C2CCN(C)CC2)n1 .
result: 0

query: Name the recorded %Inh for CSc1ccc(NC2=C(c3ccc(Cl)cc3)C(=O)NC2=O)cc1 .
result: 29

query: Name the recorded %Inh for Cc1ccccc1CC(=O)N1CCc2cc(-c3cn(C)c4ncnc(N)c34)ccc21 .
result: 0

====

So I've got a bunch of compounds here, and I need their %Inh values.
Test system: CDK7
experimentalSetup: concentration: 1 μM, replicates: in singlicate; n = 1
Use % as the unit, but write only the number.

query: Name the recorded %Inh for COC(=O)Nc1nc2ccc(Oc3ccc(NC(=O)Nc4cc(C(F)(F)F)ccc4F)cc3)cc2[nH]1.Cl .
result: 97.4

query: Name the recorded %Inh for O=C(Nc1c(F)cccc1F)c1cc(C(=O)c2ccccc2F)c[nH]1 .
result: 0

query: Name the recorded %Inh for COc1cc(Nc2nccc(N3CCC(NS(=O)(=O)c4ccc(NC(C)=O)cc4)CC3)n2)cc(OC)c1OC .
result: 0

query: Name the recorded %Inh for N#CC1(c2cccc(C(=O)Nc3cccc(Oc4ccc5nc(NC(=O)C6CC6)sc5n4)c3)c2)CC1 .
result: 12

query: Name the recorded %Inh for COc1cc(Nc2ccnc3cc(-c4ccncc4)ccc23)cc(OC)c1OC.Cl .
result: 0

====

So I've got a bunch of compounds here, and I need their %Inh values.
Test system: IKK-epsilon
Construct: gene IKBKE
experimentalSetup: concentration: 1 μM, replicates: in singlicate; n = 1
Use % as the unit, but write only the number.

query: Name the recorded %Inh for COc1cccc(C2=C(Nc3cccc(O)c3)C(=O)NC2=O)c1 .
result: 40

query: Name the recorded %Inh for N#Cc1cnc2cc(-c3cnc(CNCCN4CCOCC4)s3)ccc2c1Nc1ccc(Oc2ccccc2)cc1 .
result: 43

query: Name the recorded %Inh for Cc1ccc(NC(=O)c2ccnc(N3CCCCC3)c2)cc1-c1ccc(C(=O)NCC2CC2)cc1 .
result: 0

query: Name the recorded %Inh for CSc1ccc(NC2=C(c3ccc(Cl)cc3)C(=O)NC2=O)cc1 .
result: 10
